# TARGET OR TEST SYSTEM: NRAS Q61R (Homo sapiens, UniProt P01111+P62937, Q61R)
# Sequence (P01111 whole entry Q61R): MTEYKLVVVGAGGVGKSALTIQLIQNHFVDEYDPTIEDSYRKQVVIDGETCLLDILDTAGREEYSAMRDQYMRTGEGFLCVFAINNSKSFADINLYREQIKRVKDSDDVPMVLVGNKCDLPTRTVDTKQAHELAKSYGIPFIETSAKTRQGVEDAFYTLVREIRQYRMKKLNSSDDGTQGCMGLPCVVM
# Sequence (P62937 whole entry): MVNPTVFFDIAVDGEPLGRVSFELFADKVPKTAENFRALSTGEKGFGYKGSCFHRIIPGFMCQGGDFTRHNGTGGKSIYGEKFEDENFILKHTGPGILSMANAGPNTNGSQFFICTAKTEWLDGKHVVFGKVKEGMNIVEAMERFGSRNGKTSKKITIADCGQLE
# ASSAY NAME: Disruption of BRAF RBD interaction with Ras (FRET / MOA assay, with Cyclophilin A)
# Format: biochemical
# CONDITION: NRAS Q61R; read-out: NRAS Q61R FRET data IC50
pIC50: −log10 of the molar value.
MEASUREMENT TYPE: pIC50

// below: answered compounds
{"COMPOUND": "C=CC(=O)N1CC[C@H](C(=O)N(C)[C@H](C(=O)N[C@H]2Cc3cc(O)cc(c3)-c3ccc4c(c3)c(c(-c3cncnc3)n4CC)CC(C)(C)COC(=O)[C@@H]3CCCN(N3)C2=O)C(C)C)C1 [Example A061]", "MEASUREMENT TYPE": "pIC50", "MEASURED": "< 5.00"}
{"COMPOUND": "CCn1c(-c2cccnc2[C@H](C)OC)c2c3cc(ccc31)-c1csc(n1)C[C@H](NC(=O)[C@H](C(C)C)N(C)C(=O)N1CCCC1)C(=O)N1CCC[C@H](N1)C(=O)OCC(C)(C)C2 (atropisomer, axis not shown) [Example A400]", "MEASUREMENT TYPE": "pIC50", "MEASURED": "7.00 to 8.00"}
{"COMPOUND": "CCn1c(-c2cccnc2[C@H](C)OC)c2c3cc(ccc31)-c1csc(n1)C[C@H](NC(=O)[C@H](C(C)C)N(C)C(=O)N1CC3(CC3)C1)C(=O)N1CCC[C@H](N1)C(=O)OCC(C)(C)C2 (atropisomer, axis not shown) [Example A523]", "MEASUREMENT TYPE": "pIC50", "MEASURED": "6.00 to 7.00"}

Fill in the blank: the reported pIC50 of CCn1c(-c2cccnc2[C@H](C)OC)c2c3cc(ccc31)-c1csc(n1)C[C@H](NC(=O)[C@H](C(C)C)N(C)C(=O)N1CC[C@@H](O)C1)C(=O)N1CCC[C@H](N1)C(=O)OCC(C)(C)C2 (atropisomer, axis not shown) [Example A376] is ____. 6.00 to 7.00

====

# TARGET OR TEST SYSTEM: KRAS WT (Homo sapiens, UniProt P01116+P62937)
# Sequence (P01116 1-169 isoform P01116-2 limits assumed): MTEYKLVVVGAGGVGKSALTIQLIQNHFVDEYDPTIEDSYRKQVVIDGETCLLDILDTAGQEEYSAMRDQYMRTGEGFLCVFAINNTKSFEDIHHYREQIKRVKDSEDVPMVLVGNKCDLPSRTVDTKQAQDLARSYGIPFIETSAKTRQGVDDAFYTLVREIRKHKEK
# Sequence (P62937 whole entry): as the sequence (P62937 whole entry) above
# ASSAY NAME: Disruption of BRAF RBD interaction with Ras (FRET / MOA assay, with Cyclophilin A)
# Format: biochemical
# CONDITION: KRAS WT; read-out: KRAS WT FRET data IC50
pIC50: −log10 of the molar value.
Listed here: items and their measured pIC50.

{"MOLECULE": "CCn1c(-c2cccnc2COC)c2c3cc(ccc31)-c1cc(O)cc(c1)C[C@H](NC(=O)[C@@H](C(C)C)N(C)C(=O)[C@H]1CCN(C(=O)C#CCN(C)C)C1)C(=O)N1CCC[C@H](N1)C(=O)OCC(C)(C)C2 [Example A156]", "TARGET OR TEST SYSTEM": "KRAS WT (Homo sapiens, UniProt P01116+P62937)", "pIC50": "< 5.00"}

Fill in the blank: the reported pIC50 of CCn1c(-c2cccnc2[C@H](C)OC)c2c3cc(ccc31)-c1csc(n1)C[C@H](NC(=O)[C@H](C(C)C)N(C)C(=O)N1CCC13CN(C)C3)C(=O)N1CCC[C@H](N1)C(=O)OCC(C)(C)C2 [Example A274] is ____. 7.00 to 8.00
